From: ChEMBL document CHEMBL1201862

tested on: OVCAR-3; assay: NCI tumour cell line growth inhibition, 48 h
Activity calls are given as the source filed them. Rule as the data show it: active = GI50 up to about 1.1 µM and inactive = higher.
Outcomes: active, inactive

# COMPOUND, STUDY_TARGET, LABEL
rows = [
    ("Nc1nnc(CCC(=O)Nc2cc(Cl)ccc2Cl)n1N", "OVCAR-3", "inactive"),
    ("C/C(CC(=O)Nc1ccc(Cl)cc1)=N\\NC(N)=S", "OVCAR-3", "inactive"),
    ("COc1cc(C2CC(C)(N3CCOCC3)Oc3cc4c(cc32)OCO4)cc(OC)c1OC (stereo unspecified)", "OVCAR-3", "active"),
    ("O=[N+]([O-])/C(C(Cl)=C(Cl)Cl)=C(/Nc1cccc2cccnc12)n1nnc2ccccc21", "OVCAR-3", "inactive"),
    ("O=C(O)c1cc(CCc2ccc(O)c(O)c2)ccc1O", "OVCAR-3", "inactive"),
    ("C/C(=C\\c1ccc2c(c1)OCO2)[N+](=O)[O-]", "OVCAR-3", "inactive"),
    ("Cc1ccc(S(=O)(=O)n2cncc2CO)cc1", "OVCAR-3", "inactive"),
    ("Brc1ccc2c(c1)-c1nc3nc4c(cc3cc1CC2)CCc1ccc(Br)cc1-4", "OVCAR-3", "inactive"),
    ("CCC1(O)C(=O)OCc2c1cc1n(c2=O)Cc2cc3cc4c(cc3nc2-1)OCO4 (stereo unspecified)", "OVCAR-3", "active"),
    ("CCP(=O)(CC)C(Cl)(Cl)C(O)C(C)(C)C (stereo unspecified)", "OVCAR-3", "inactive"),
    ("COc1ccc(OC/C(N)=N/NC(=O)c2ccncc2)cc1", "OVCAR-3", "inactive"),
]

====

test system: COLO 205; experiment: NCI tumour cell line growth inhibition, 48 h
Calls of active or inactive are those of the source. No stated cut-off is given here; in the data, active = GI50 up to about 1.1 µM and inactive = higher.

# COMPOUND, GI50
rows = [
    ("CC(=O)N(C)c1ccc(/N=C/N(C)C)cc1", "> 100 µM (inactive)"),
    ("c1ccc([P+](Cc2ccc(C[P+](c3ccccc3)(c3ccccc3)c3ccccc3)s2)(c2ccccc2)c2ccccc2)cc1", "> 100 µM (inactive)"),
    ("CCN(CC)CCOc1ccc(N2Cc3ccccc3C2=O)cc1", "> 10 µM (inactive)"),
    ("C/C(CC(=O)Nc1ccc(Cl)cc1)=N\\NC(N)=S", "23.3 µM (inactive)"),
    ("O=C1C(c2ccc([N+](=O)[O-])cc2)=[N+]([O-])c2ccc([N+](=O)[O-])cc21", "35.3 µM (inactive)"),
    ("CC/C=C/c1cc2c(cc1O)CCC1C2CC[C@@]2(C)C1CC[C@@H]2O (some centres not stated)", "14 µM (inactive)"),
    ("Oc1ccc(Cl)cc1C1=NC(NCNC2=NC(c3ccccc3)CC(c3cc(Cl)ccc3O)=N2)=NC(c2ccccc2)C1 (configuration not stated)", "> 100 µM (inactive)"),
]

====

system: HT-29; test: NCI tumour cell line growth inhibition, 48 h
Active and inactive are the calls of the source. Rule as the data show it: active = GI50 up to about 1.1 µM and inactive = higher.
Known GI50 of a selection of molecules

# MOLECULE, GI50
rows = [
    ("COC(=O)Nc1nc2cc(NS(=O)(=O)c3ccc(Cl)cc3)ccc2[nH]1", "4.26 µM (inactive)"),
    ("Cc1ccc(O)c(C2=CC3=NNC(=O)C3C(c3cccc(Br)c3)C2)c1 (stereo not drawn)", "23.8 µM (inactive)"),
    ("Cc1ccc(C(=O)Nc2ccc(CP(=O)(O)O)cc2CP(=O)(O)O)cc1N", "> 100 µM (inactive)"),
]

====

system: SR; assay: NCI tumour cell line growth inhibition, 48 h
Active and inactive are the calls of the source. Rule as the data show it: active = GI50 up to about 1.1 µM and inactive = higher.

# COMPOUND, GI50
measured = [
    ("Cc1cc2nc3c(C#N)c4c(c(Nc5ccc(F)cc5)n3c2cc1C)CCC4", "> 100 µM (inactive)"),
    ("CCN1C[C@]2(COC)[C@H](O)C[C@H](OC)[C@]34C1[C@H]([C@H](OC)[C@H]23)[C@]1(OC(C)=O)[C@H]2[C@@H](OC(=O)c3ccccc3)[C@](O)(C[C@H]24)[C@@H](OC)[C@@H]1O", "> 100 µM (inactive)"),
    ("COc1ccc(C(C)NNC(=O)c2cc[n+]([BH2-]C#N)cc2)cc1OC (stereo not drawn)", "> 100 µM (inactive)"),
]

====

system: 786-0; assay: NCI tumour cell line growth inhibition, 48 h
Activity calls are given as the source filed them. Rule as the data show it: active = GI50 up to about 1.1 µM and inactive = higher.
Outcomes: active, inactive

# MOLECULE, STUDY_TARGET, LABEL
records = [
    ("CN(C)c1ccc(C2CC(C)(O)Oc3cc4c(cc32)OCO4)cc1 (centres undefined)", "786-0", "inactive"),
    ("C/C(=N/NC(=S)Nc1ccc(Cl)cc1)c1cccc(/C(C)=N\\NC(=S)Nc2ccc(Cl)cc2)n1", "786-0", "active"),
    ("COc1cc(OCc2ccc3oc(=O)c(-c4ccccc4)nc3c2)cc(OC)c1OC", "786-0", "inactive"),
    ("C/C(CC(=O)Nc1ccc(Cl)cc1)=N\\NC(N)=S", "786-0", "inactive"),
    ("O=C(CCc1cc(O)cc(O)c1)NCCc1cc(O)cc(OCc2ccccc2)c1", "786-0", "inactive"),
    ("NC(=S)N/N=C\\CC(O)(C(F)(F)F)C(F)(F)F", "786-0", "inactive"),
    ("OCC(O)COCn1cc(Cn2ncc3c(SCc4ccccc4)ncnc32)nn1 (centres undefined)", "786-0", "inactive"),
    ("COc1ccc2c(c1OCC(=O)O)C(=O)C(CCC(=O)O)CC2 (centres undefined)", "786-0", "inactive"),
    ("CC(=O)OCC1OC(OCCCOP(=S)(OCCC#N)OCC2OC(n3ccc(N)nc3=O)C(OC(=O)c3ccccc3)C2OC(=O)c2ccccc2)C(OC(C)=O)C(OC(C)=O)C1OC(C)=O (centres undefined)", "786-0", "inactive"),
]

====

test system: 786-0; experiment: NCI tumour cell line growth inhibition, 48 h
Activity calls are given as the source filed them. Rule as the data show it: active = GI50 up to about 1.1 µM and inactive = higher.

# MOLECULE, STUDY_TARGET, GI50
records = [
    ("CCCCCCCCCCCCCc1nnn[nH]1", "786-0", "17.3 µM (inactive)"),
    ("COC(=O)NC(=O)c1cn(C2CCCCC2)c(=O)[nH]c1=O", "786-0", "> 100 µM (inactive)"),
    ("CC1(C=O)CC(CCc2ccccc2)NC1Cc1ccc(O)cc1 (stereo unspecified)", "786-0", "15.2 µM (inactive)"),
    ("Nc1nc(N)nc(-c2cnccn2)n1", "786-0", "> 100 µM (inactive)"),
    ("CC(C)c1cc(=O)[nH]c2cc(N)ccc12", "786-0", "> 100 µM (inactive)"),
    ("CC(=O)Nc1ccc(C(=O)N2N=C(C)/C(=C/c3ccccc3O)C2=O)cc1", "786-0", "> 100 µM (inactive)"),
]

====

Known GI50 of a selection of molecules
system: HCT-116; assay: NCI tumour cell line growth inhibition, 48 h
The source made the active and inactive calls. Rule as the data show it: active = GI50 up to about 1.1 µM and inactive = higher.

# MOLECULE, STUDY_TARGET, GI50
rows = [
    ("CCOC(=O)NC(OC)(C(F)(F)F)C(F)(F)F", "HCT-116", "> 100 µM (inactive)"),
    ("CC1(C=O)CC(CCc2ccccc2)NC1Cc1ccc(O)cc1 (stereo not drawn)", "HCT-116", "15.6 µM (inactive)"),
    ("Cc1nc2c(n1-c1ccc(Br)cc1)C(=O)c1ccccc1C2=O", "HCT-116", "1.63 µM (inactive)"),
]

====

Known GI50 of a selection of compounds
system: UACC-62; experiment: NCI tumour cell line growth inhibition, 48 h
The source made the active and inactive calls. Rule as the data show it: active = GI50 up to about 1.1 µM and inactive = higher.

# COMPOUND, GI50
data = [
    ("NC1=Nc2ccccc2Sc2nc3ccccc3n21", "23.9 µM (inactive)"),
    ("COC(=O)c1ccccc1C1CN=NC12Cc1cc(C)c(C)cc1C2=O (configuration not stated)", "53 µM (inactive)"),
    ("NCCN(CCN(C(=O)Nc1ccccc1)c1ccccc1)C(=O)Nc1ccccc1", "16.6 µM (inactive)"),
    ("COC(=O)C(C(=O)C(=O)Nc1ccc(C)cc1C)c1csc(-n2nc(-c3ccccc3)cc2-c2ccccc2)n1 (configuration not stated)", "61.7 µM (inactive)"),
    ("C/C(=N\\NC(=O)/C(C#N)=C\\c1ccc(N(CCC#N)CCC#N)cc1)c1ccccc1", "> 10 µM (inactive)"),
    ("Cc1cc2ncn(C3CCCCO3)c2cc1C (configuration not stated)", "> 100 µM (inactive)"),
    ("COc1cc2c(cc1O)CCN[C@@]21CS[C@H]2c3c(OC(C)=O)c(C)c4c(c3C(COC1=O)N1C2C2NC(Cc3cc(C)c(OC)c(O)c32)[C@@H]1C#N)OCO4 (some centres not stated)", "< 0.01 µM (active)"),
    ("Nc1ccc2c(c1)NC(=O)[C@@H]1CCCN1C2=O", "> 100 µM (inactive)"),
    ("CCOC(=O)C(=O)Nc1cccc(C)c1C", "> 100 µM (inactive)"),
    ("O=c1c2c(nc3n1CCC3)sc1c(O)c(Br)ccc12", "17.4 µM (inactive)"),
    ("Nc1nc(Nc2cc(F)c(Cl)c(F)c2)cc(=O)[nH]1", "68.9 µM (inactive)"),
    ("COC(=O)NC(=O)c1cn(C2CCCCC2)c(=O)[nH]c1=O", "> 100 µM (inactive)"),
    ("CCC(O)C1Cc2c(C)cc3c(c2O1)C(=O)c1ccccc1C3=O (configuration not stated)", "28.8 µM (inactive)"),
    ("CCOc1ccccc1/N=N/C1C(=O)N(C(=O)CC(=O)Nc2ccccc2C)N=C1C (configuration not stated)", "21.3 µM (inactive)"),
    ("Nc1c(C(=O)O)nnc2ccc(Cl)cc12", "> 100 µM (inactive)"),
    ("COc1cccc([C@H]2C/C(=N\\NC(=O)C(=O)N[C@@H](C)c3ccccc3)c3ccccc3N2)c1", "< 0.01 µM (active)"),
    ("CC[C@@]1(O)C(=O)OCc2c1cc1n(c2=O)Cc2cc3cc4c(cc3nc2-1)OCO4", "< 0.001 µM (active)"),
    ("COC(=O)/C=C/C(=O)C1C(C(=O)OC)C2(C(=O)OC)CCC1(C(=O)OC)N2 (configuration not stated)", "> 100 µM (inactive)"),
    ("CCOC(=O)c1c(O)nc(O)c(CC)c1C", "> 100 µM (inactive)"),
    ("O=c1c2ccccc2[nH]n1Cc1ccccc1", "> 100 µM (inactive)"),
    ("COc1ccc(CC2CCc3nc(N)nc(N)c3C2)cc1OC (configuration not stated)", "0.0612 µM (active)"),
    ("CN1CCN(C(=S)N(C(=O)c2ccc(Cl)cc2)c2ccccc2)CC1", "> 100 µM (inactive)"),
]
